Here the recorded EC50 is given for each entry.
System: Human immunodeficiency virus 1
Experiment: microbe, parasite or virus in culture
Assay type: functional, organism-based
Settings: Human immunodeficiency virus 1, 3B, CCRF-CEM
Description: Antiviral activity against HIV1 3B infected in human CEM/0 cells assessed as inhibition of viral-induced giant cell formation incubated for 4 to 5 days by microscopy
Answer in µM, number only, no unit symbol.

>  <compound>
CCCCCCCCCCCCCCCCOC(=O)Oc1ccc(COP(=O)(OCc2ccc(OC(=O)CCCC)cc2)OP(=O)(O)OP(=O)(O)OC[C@H]2O[C@@H](n3cc(Cl)c(=O)[nH]c3=O)C[C@@H]2F)cc1.N.N (stereo partly specified)

>  <endpoint>
EC50

>  <unit>
µM

>  <measured result>
2.59

$$$$
>  <compound>
Cc1cn([C@@H]2C[C@H](CO)[C@@H](O)C2)c(=O)[nH]c1=O

>  <endpoint>
EC50

>  <unit>
µM

>  <measured result>
36

$$$$
>  <compound>
CCCCCCCCCCCCCCCCOC(=O)Oc1ccc(COP(=O)(OCc2ccc(OC(=O)CC)cc2)OP(=O)(O)OP(=O)(O)OC[C@@H]2O[C@H](n3cc(F)c(N)nc3=O)CS2)cc1.N.N (stereo partly specified)

>  <endpoint>
EC50

>  <unit>
µM

>  <measured result>
0.026

$$$$

In the following, a different compound is considered.
The reported EC50 of the compound CCCCCCCCCCCCCCCCOC(=O)Oc1ccc(COP(=O)(OCc2ccc(OC(=O)CC)cc2)OP(=O)(O)OP(=O)(O)OC[C@H]2O[C@@H](n3cc(/C=C/Br)c(=O)[nH]c3=O)C[C@@H]2O)cc1.N.N (stereo partly specified) was 11.2

----------
# pEC50 listing for each entry below
Tested on: Human immunodeficiency virus 1
Experiment: microbe, parasite or virus in culture
Type: functional, organism-based
Conditions: Human immunodeficiency virus 1, 3B, CCRF-CEM
Quick note: pEC50 means taking -log10 of the concentration in moles per liter.

For orientation, consider the following solved cases.
>  <compound>
CCCCCCCCCCCCCCCCOC(=O)Oc1ccc(COP(=O)(OCc2ccc(OC(=O)CCCC)cc2)OP(=O)(O)OP(=O)(O)OC[C@@H]2O[C@H](n3cc(F)c(N)nc3=O)CS2)cc1.N.N (stereo partly specified)

>  <endpoint>
pEC50

>  <measured result>
8.37

$$$$
>  <compound>
CCCCCCCCCCCCCCCCOC(=O)Oc1ccc(COP(=O)(OCc2ccc(OC(=O)CC)cc2)OP(=O)(O)OP(=O)(O)OC[C@H]2O[C@@H](n3cc(Cl)c(=O)[nH]c3=O)C[C@@H]2F)cc1.N.N (stereo partly specified)

>  <endpoint>
pEC50

>  <measured result>
5.89

$$$$
>  <compound>
CCCCCCCCCCCCCCCCOC(=O)Oc1ccc(COP(=O)(OCc2ccc(OC(=O)CCCC)cc2)OP(=O)(O)OP(=O)(O)OC[C@@H]2C=C[C@H](n3cc(C)c(=O)[nH]c3=O)O2)cc1 (stereo partly specified)

>  <endpoint>
pEC50

>  <measured result>
7.49

$$$$

Next up:
pEC50 measured on `CCCCCCCCCCCCCCCCOC(=O)Oc1ccc(COP(=O)(O)OP(=O)(O)OP(=O)(O)OC[C@H]2O[C@@H](n3cc(Cl)c(=O)[nH]c3=O)C[C@@H]2F)cc1` = 5.60

----------
Assay: Stability in aqueous 25 mM PBS at pH 7.3 assessed as hydrolysis half life by HPLC analysis
Assay type: physicochemical
endpoint: half-life
Returns: string containing the number followed by the unit.

A selection of reference data follows.
>  <molecule>
CCCCCCCCCCCCCCCCOC(=O)Oc1ccc(COP(=O)(OCc2ccc(OC(=O)CC)cc2)OP(=O)(O)OP(=O)(O)OC[C@H]2O[C@@H](n3cc(Cl)c(=O)[nH]c3=O)C[C@@H]2F)cc1.N.N (stereo not given in full)

>  <half-life>
56 h

$$$$
>  <molecule>
CCCCCCCCCCCCCCCCOC(=O)Oc1ccc(COP(=O)(OCc2ccc(OC(=O)CC)cc2)OP(=O)(O)OP(=O)(O)OC[C@@H]2O[C@H](n3cc(F)c(N)nc3=O)CS2)cc1.N.N (stereo not given in full)

>  <half-life>
45 h

$$$$
>  <molecule>
CCCCCCCCCCCCCCCCOC(=O)Oc1ccc(COP(=O)(OCc2ccc(OC(=O)CC)cc2)OP(=O)(O)OP(=O)(O)OC[C@H]2C[C@@H](n3cc(C)c(=O)[nH]c3=O)C[C@@H]2O)cc1.N.N (stereo not given in full)

>  <half-life>
74 h

$$$$
>  <molecule>
CCCCCCCCCCCCCCCCOC(=O)Oc1ccc(COP(=O)(OCc2ccc(OC(=O)CC)cc2)OP(=O)(O)OP(=O)(O)OC[C@H]2O[C@@H](n3ccc(=O)[nH]c3=O)C[C@H]2N=[N+]=[N-])cc1.N.N (stereo not given in full)

>  <half-life>
68 h

$$$$

Recorded half-life (molecule CCCCCCCCCCCCCCCCOC(=O)Oc1ccc(COP(=O)(OCc2ccc(OC(=O)CC)cc2)OP(=O)(O)OP(=O)(O)OC[C@H]2O[C@@H](n3cc(/C=C/Br)c(=O)[nH]c3=O)C[C@@H]2O)cc1.N.N (stereo not given in full) ): 56 h

----------
Experiment: Stability in human CEM/0 cell extracts assessed as hydrolysis half life by HPLC analysis
Format: ADME, CCRF-CEM
# key: entry, value: half-life
# unit: h | format: bare number

Check out these entries, answers already filled in.
>  <molecule>
CCCCCCCCCCCCCCCCOC(=O)Oc1ccc(COP(=O)(OCc2ccc(OC(=O)CCCC)cc2)OP(=O)(O)OP(=O)(O)OC[C@@H]2CC[C@H](n3cnc4c(=O)[nH]cnc43)O2)cc1.N.N (stereo not given in full)

>  <unit>
h

>  <half-life>
1.57

$$$$
>  <molecule>
CCCCCCCCCCCCCCCCOC(=O)Oc1ccc(COP(=O)(OCc2ccc(OC(=O)CCCC)cc2)OP(=O)(O)OP(=O)(O)OC[C@H]2O[C@@H](n3cc(/C=C/Br)c(=O)[nH]c3=O)C[C@@H]2O)cc1.N.N (stereo not given in full)

>  <unit>
h

>  <half-life>
1.31

$$$$
>  <molecule>
CCCCCCCCCCCCCCCCOC(=O)Oc1ccc(COP(=O)(OCc2ccc(OC(=O)CC)cc2)OP(=O)(O)OP(=O)(O)OC[C@H]2O[C@@H](n3cc(Cl)c(=O)[nH]c3=O)C[C@H]2N=[N+]=[N-])cc1.N.N (stereo not given in full)

>  <unit>
h

>  <half-life>
2.52

$$$$
>  <molecule>
CCCCCCCCCCCCCCCCOC(=O)Oc1ccc(COP(=O)(OCc2ccc(OC(=O)CCCC)cc2)OP(=O)(O)OP(=O)(O)OC[C@H]2O[C@@H](n3cc(C)c(=O)[nH]c3=O)C[C@@H]2N=[N+]=[N-])cc1.N.N (stereo not given in full)

>  <unit>
h

>  <half-life>
5

$$$$

# evaluate next
Entry under test: CCCCCCCCCCCCCCCCOC(=O)Oc1ccc(COP(=O)(OCc2ccc(OC(=O)CC)cc2)OP(=O)(O)OP(=O)(O)OC[C@H]2O[C@@H](n3cc(Cl)c(=O)[nH]c3=O)C[C@@H]2F)cc1.N.N (stereo not given in full) . Its half-life was 1.64

----------
Tested on: pig liver esterase
Experiment: Stability in pH 7.3 PBS assessed as pig liver esterase mediated hydrolysis by measuring half life by HPLC analysis
Type: ADME, Sus scrofa
endpoint: half-life (h)
Return type: number; implicit unit h.

Observe how each entry below is paired with its result.
>  <molecule>
CCCCCCCCCCCCCCCCOC(=O)Oc1ccc(COP(=O)(OCc2ccc(OC(=O)CC)cc2)OP(=O)(O)OP(=O)(O)OC[C@H]2O[C@@H](n3cc(Cl)c(=O)[nH]c3=O)C[C@H]2N=[N+]=[N-])cc1.N.N (stereo partly specified)

>  <unit>
h

>  <half-life>
3

$$$$
>  <molecule>
CCCCCCCCCCCCCCCCOC(=O)Oc1ccc(COP(=O)(OCc2ccc(OC(=O)CCCC)cc2)OP(=O)(O)OP(=O)(O)OC[C@H]2O[C@@H](n3cc(/C=C/Br)c(=O)[nH]c3=O)C[C@@H]2O)cc1.N.N (stereo partly specified)

>  <unit>
h

>  <half-life>
7

$$$$
>  <molecule>
CCCCCCCCCCCCCCCCOC(=O)Oc1ccc(COP(=O)(OCc2ccc(OC(=O)CCCC)cc2)OP(=O)(O)OP(=O)(O)OC[C@@H]2CC[C@H](n3cnc4c(=O)[nH]cnc43)O2)cc1.N.N (stereo partly specified)

>  <unit>
h

>  <half-life>
3.5

$$$$
>  <molecule>
CCCCCCCCCCCCCCCCOC(=O)Oc1ccc(COP(=O)(OCc2ccc(OC(=O)CCCC)cc2)OP(=O)(O)OP(=O)(O)OC[C@H]2O[C@@H](n3cc(C)c(=O)[nH]c3=O)C[C@@H]2N=[N+]=[N-])cc1.N.N (stereo partly specified)

>  <unit>
h

>  <half-life>
4

$$$$
>  <molecule>
CCCCCCCCCCCCCCCCOC(=O)Oc1ccc(COP(=O)(OCc2ccc(OC(=O)CCCC)cc2)OP(=O)(O)OP(=O)(O)OC[C@@H]2O[C@H](n3cc(F)c(N)nc3=O)CS2)cc1.N.N (stereo partly specified)

>  <unit>
h

>  <half-life>
2.26

$$$$

Alright, here's another molecule for you.
Lab note: CCCCCCCCCCCCCCCCOC(=O)Oc1ccc(COP(=O)(OCc2ccc(OC(=O)CC)cc2)OP(=O)(O)OP(=O)(O)OC[C@@H]2O[C@H](n3cc(F)c(N)nc3=O)CS2)cc1.N.N (stereo partly specified) gave half-life of 2.6

Values were extracted from ChEMBL document CHEMBL4610119.
